Test system: HCV RNA replication (full-length HCV RNA genome harboring a Luciferase reporter gene)
Experiment: Luciferase reporter-linked HCV replication assay in Huh7.5 cells
Assay type: cell-based, Hepatitis C Virus
Test conditions: Hepatitis C virus, Huh7.5; 5 uM; read-out: AV (HCV RNA replication, percent of normal activity remaining)
Test readout: activity at 5 µM (%)
Unit % implied. Number only.

Example cases with answers are listed next.
>>> reported_measurement("Cc1nc2ccccc2n1Cc1ccc(Br)cc1")
3
>>> reported_measurement("Brc1ccc(Cn2cnc3ccccc32)cc1")
23
>>> reported_measurement("Clc1ccc(Cn2c(CN3CCCC3)nc3ccccc32)cc1 [drawing 415]")
62
>>> reported_measurement("CC(C)(C)c1ccc(Cn2cnc3ccccc32)cc1")
30
>>> reported_measurement("COC(=O)c1ccc(Cn2cnc3ccccc32)cc1")
74

Give the measured activity at 5 µM of Cc1cc2ncn(Cc3ccc(Cl)cc3Cl)c2cc1C . 30

Ok, now Cc1nc2cc(Cl)ccc2n1Cc1ccccc1 87

Ok, now COc1ccc(Cn2cnc3ccccc32)cc1 70

Ok, now Cc1ccc(Cn2cnc3ccccc32)cc1 49
